systemName: pooled human IgG (human IgG1, 2, 3 and 4)
# reported Enzyme Activity Endpoint Assay: scIgG; entries follow
reportedProperty: Enzyme Activity Endpoint Assay: scIgG (ng/µL)

INSERT INTO measurements (protein, reportedproperty, obsvalue) VALUES
  ('PRT-390 (protein) MVTSVWTKGVTPPTNFTYGEDVLHAPYVANQGWYDITKTFNGKDDLLCGAATAGNMLHWWFDQNKEQIENYLKKHPEKQKINFNGEQLFDVKEAIDTKDSQLDSKLFEYFKEKAFPYLSTKHLGVFPDHVIDMFINGYRLSLTNHGPTPVKRGSKDPRGGIFDAVFTRGDQSKLLTNRHDFKEKTLKEISDLIKQELTEGKALGISHTYANVRINHVINLWGADFDAEGNLEAIYVTDSDSNASIGMKKYFVGVNSNGKVAISAKEIEEDNIGAQVLGLFTLSTGQDIWNQTN', 'Enzyme Activity Endpoint Assay: scIgG', 227),
  ('PRT-602 (protein) MANQEIRYSEVTPYHITSVWTKGVTPPANFTQGEDVFHAPYVANQGWYDITKTFNGKDDLLCGAATAGNMLHWWFDQNKDQIERYLEEHPEKQKINFNGEQMFDVKEAIDTKDSQTDSKLFEYFKEKAFPYLSTKHLGVFPDHVIDMFINGYRLSLTNHGPTPVKEGSKDPRGGIFDAVFTRGDQSKLLTSRHDFKEKTLKEISDLIKQELTEGKALGLSHTYANVRINHVINLWGADFDSEGNLKAIYVTDSDSNASIGMKKYYVGVNSAGKVAISAKEIEEDNIGAQVLGLFTLSTGQDIWNQTNLEHHHHHH', 'Enzyme Activity Endpoint Assay: scIgG', 212),
  ('PRT-477 (protein) MVTSVWTKGVTPPTNFTYGEDVLHAPYVANQGWYDITKTFNGKDDLLCGAATAGNMLHWWFDQNKEQIENYLKKHPEKQKINFNGEQMFDVKEAIDTKDSQLDSKLFEYFKEKAFPYLSTKHLGVFPDHVIDMFINGYRLSLTNHGPTPVKRGSKDPRGGIFDAVFTRGDQSKLLTNRHDLKNKTLKEISDLIKQELTEGKALGISHTYANVRINHVINLWGADFDAEGNLEAIYVTDSDSNASIGMKKYFVGVNSNGKVAISAKEIEEDNIGAQVLGLFTLSTGQDIWNQTNLEHHHHHH', 'Enzyme Activity Endpoint Assay: scIgG', 224),
  ('PRT-270 (protein) MVTSVWTKGVTPPTDFIYGEDVLHAPYKAGQGWYDITKLFNGKDDLLCGAATAGNMLHWWFDQNKEQIENYLKKHPEKQKINFNGEQMFDVKEAIDTKDSQLDSKLFEYFLEKAFPNLSTKHLGVFPDHVIDMFINGYRLSLLNHGPTPVKRGSKDPRGGIFDAVFTRGDQSKLLTNRHDLKNKTLKEISDLIKQELTEGKALGISHTYANGRINHVINLWGADFDAEGNLEAIAVTDSDSNASIGMKKYFVGVNSSGKVAISAKEIEEDNIGAQVLGLFTLSTGQDIWNQTN', 'Enzyme Activity Endpoint Assay: scIgG', 311);
